System: Escherichia coli TOP10
Assay: shrunken log2 fold change of peptide-encoding DNA abundance (4.5 h post-induction vs induction); higher = less antimicrobial activity (less host growth inhibition)
Settings: time post-induction: 4.5 h; library: site-saturation at positions 5, 18, 19, 20
Think of -0.05 as a floor: if shrunken log2 fold change stands on it or above, it is 1; beneath it, -1.

* RRIRCRPPRLPRPRPRPVMDPRP | 1
* RRIRGRPPRLPRPRPRPPCMPRP | 1
* RRIRFRPPRLPRPRPRPGGVPRP | 1
* RRIRIRPPRLPRPRPRPDYFPRP | 1
* RRIRQRPPRLPRPRPRPTAIPRP | -1
* RRIRYRPPRLPRPRPRPPNEPRP | -1
* RRIRWRPPRLPRPRPRPKYVPRP | 1
* RRIRTRPPRLPRPRPRPNKMPRP | 1
* RRIRQRPPRLPRPRPRPIEYPRP | 1
* RRIRPRPPRLPRPRPRPLLNPRP | -1
* RRIRFRPPRLPRPRPRPTRMPRP | 1
* RRIRERPPRLPRPRPRPVFYPRP | -1
* RRIRLRPPRLPRPRPRPCIDPRP | -1
* RRIRHRPPRLPRPRPRPFKCPRP | 1
* RRIRRRPPRLPRPRPRPFDQPRP | 1
* RRIRFRPPRLPRPRPRPKRDPRP | 1
* RRIRMRPPRLPRPRPRPSEYPRP | 1
* RRIRHRPPRLPRPRPRPQWFPRP | -1
* RRIRRRPPRLPRPRPRPISQPRP | -1
* RRIRNRPPRLPRPRPRPADIPRP | -1
* RRIRMRPPRLPRPRPRPDCRPRP | 1
* RRIRTRPPRLPRPRPRPVVEPRP | 1
* RRIRPRPPRLPRPRPRPAEIPRP | 1
* RRIRPRPPRLPRPRPRPGGQPRP | 1
* RRIRDRPPRLPRPRPRPQMFPRP | 1
* RRIRFRPPRLPRPRPRPKCVPRP | -1
* RRIRERPPRLPRPRPRPFQRPRP | -1
* RRIRIRPPRLPRPRPRPRMTPRP | 1
* RRIRVRPPRLPRPRPRPVECPRP | -1
* RRIRQRPPRLPRPRPRPTFGPRP | 1
* RRIRYRPPRLPRPRPRPFPWPRP | -1
* RRIRDRPPRLPRPRPRPGFFPRP | 1
* RRIRFRPPRLPRPRPRPMWEPRP | -1
* RRIRRRPPRLPRPRPRPTSSPRP | 1
* RRIRNRPPRLPRPRPRPRFFPRP | -1
* RRIRIRPPRLPRPRPRPDGWPRP | -1
* RRIRSRPPRLPRPRPRPGFGPRP | 1
* RRIRVRPPRLPRPRPRPKFHPRP | 1
* RRIRFRPPRLPRPRPRPKGNPRP | 1
* RRIRHRPPRLPRPRPRPQWLPRP | 1

----------
// shrunken log2 fold change lookup, one value per entry
System: Escherichia coli TOP10
Experiment: shrunken log2 fold change of peptide-encoding DNA abundance (4.5 h post-induction vs induction); higher = less antimicrobial activity (less host growth inhibition)
Conditions: time post-induction: 4.5 h; library: site-saturation at positions 5, 18, 19, 20
VALUE KIND: shrunken log2 fold change

* RRIRMRPPRLPRPRPRPKPLPRP | 0.603
* RRIRRRPPRLPRPRPRPTADPRP | 0.808
* RRIRKRPPRLPRPRPRPDLMPRP | 0.0729
* RRIRDRPPRLPRPRPRPRHMPRP | 0.0599
* RRIRLRPPRLPRPRPRPLNYPRP | -0.501
* RRIRYRPPRLPRPRPRPTCRPRP | -0.157
* RRIRWRPPRLPRPRPRPDFCPRP | 0.247
* RRIRIRPPRLPRPRPRPILVPRP | 0.0273
* RRIRHRPPRLPRPRPRPHRNPRP | -0.117
* RRIRYRPPRLPRPRPRPKYRPRP | -0.0133
* RRIRFRPPRLPRPRPRPSRHPRP | -0.162
* RRIRQRPPRLPRPRPRPKGDPRP | 0.00911
* RRIRGRPPRLPRPRPRPGFPPRP | 0.691
* RRIRNRPPRLPRPRPRPGWSPRP | 0.2
* RRIRRRPPRLPRPRPRPSRNPRP | 0.453
* RRIRGRPPRLPRPRPRPQMCPRP | 0.522
* RRIRERPPRLPRPRPRPRVVPRP | 0.069
* RRIRRRPPRLPRPRPRPWMEPRP | -0.137
* RRIRARPPRLPRPRPRPNQLPRP | -0.0527
* RRIRIRPPRLPRPRPRPEHWPRP | 0.168
* RRIRIRPPRLPRPRPRPGSSPRP | -0.486
* RRIRFRPPRLPRPRPRPQYTPRP | -0.616
* RRIRQRPPRLPRPRPRPTIDPRP | -0.0223
* RRIRQRPPRLPRPRPRPEKNPRP | 0.172
* RRIRIRPPRLPRPRPRPPYIPRP | -0.299
* RRIRPRPPRLPRPRPRPQHCPRP | -0.0861
* RRIRGRPPRLPRPRPRPMGKPRP | 0.375
* RRIRYRPPRLPRPRPRPWLPPRP | 0.1
* RRIRHRPPRLPRPRPRPTPMPRP | 0.0946
* RRIRGRPPRLPRPRPRPYRRPRP | -0.00129

----------
Test system: Escherichia coli TOP10
Experiment: shrunken log2 fold change of peptide-encoding DNA abundance (4.5 h post-induction vs induction); higher = less antimicrobial activity (less host growth inhibition)
Settings: time post-induction: 4.5 h; library: site-saturation at positions 5, 18, 19, 20
Think of -0.09 as a floor: if shrunken log2 fold change stands on it or above, it is 1; beneath it, 0.

* RRIRDRPPRLPRPRPRPVGRPRP | 1
* RRIRTRPPRLPRPRPRPEDTPRP | 1
* RRIRNRPPRLPRPRPRPQLGPRP | 0
* RRIRNRPPRLPRPRPRPRCRPRP | 1

----------
Tested on: Escherichia coli TOP10
Experiment: shrunken log2 fold change of peptide-encoding DNA abundance (4.5 h post-induction vs induction); higher = less antimicrobial activity (less host growth inhibition)
Conditions: time post-induction: 4.5 h; library: site-saturation at positions 5, 18, 19, 20
Think of -0.03 as a floor: if shrunken log2 fold change stands on it or above, it is 1 (yes); beneath it, 0 (no).

• RRIRSRPPRLPRPRPRPMDQPRP = 1 (yes)
• RRIRIRPPRLPRPRPRPTCQPRP = 0 (no)
• RRIRSRPPRLPRPRPRPENQPRP = 0 (no)
• RRIRPRPPRLPRPRPRPIDFPRP = 0 (no)
• RRIRKRPPRLPRPRPRPQKTPRP = 1 (yes)
• RRIRSRPPRLPRPRPRPADAPRP = 1 (yes)
• RRIRFRPPRLPRPRPRPTNCPRP = 1 (yes)
• RRIRSRPPRLPRPRPRPEFQPRP = 1 (yes)
• RRIRNRPPRLPRPRPRPQWAPRP = 0 (no)
• RRIRIRPPRLPRPRPRPGCRPRP = 1 (yes)
• RRIRERPPRLPRPRPRPEPCPRP = 0 (no)
• RRIRRRPPRLPRPRPRPHLGPRP = 0 (no)
• RRIRIRPPRLPRPRPRPYFCPRP = 0 (no)
• RRIRRRPPRLPRPRPRPSLRPRP = 1 (yes)
• RRIRFRPPRLPRPRPRPHCQPRP = 0 (no)
• RRIRLRPPRLPRPRPRPHHTPRP = 0 (no)
• RRIRARPPRLPRPRPRPFTTPRP = 0 (no)
• RRIRDRPPRLPRPRPRPDSQPRP = 1 (yes)
• RRIRQRPPRLPRPRPRPAVPPRP = 1 (yes)
• RRIRLRPPRLPRPRPRPHVAPRP = 1 (yes)
• RRIRTRPPRLPRPRPRPIDGPRP = 1 (yes)
• RRIRKRPPRLPRPRPRPTFAPRP = 1 (yes)
• RRIRDRPPRLPRPRPRPECAPRP = 1 (yes)
• RRIRMRPPRLPRPRPRPRMHPRP = 1 (yes)
• RRIRARPPRLPRPRPRPFQDPRP = 0 (no)
• RRIRDRPPRLPRPRPRPRMKPRP = 1 (yes)
• RRIRFRPPRLPRPRPRPINQPRP = 0 (no)
• RRIRPRPPRLPRPRPRPAVCPRP = 1 (yes)
• RRIRNRPPRLPRPRPRPCDLPRP = 0 (no)

----------
Tested on: Escherichia coli TOP10;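 also: peptides expressed intracellularly from a pBAD plasmid library in pooled LB shake-flask culture, induced with 0.3% L-arabinose, DNA abundance read by NGS, three biological replicates, DESeq2 with apeglm shrinkage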
Test: shrunken log2 fold change of peptide-encoding DNA abundance (4.5 h post-induction vs induction); higher = less antimicrobial activity (less host growth inhibition)
Details: time post-induction: 4.5 h; library: site-saturation at positions 5, 18, 19, 20
// shrunken log2 fold change lookup, one value per entry
VALUE KIND: shrunken log2 fold change

• RRIRCRPPRLPRPRPRPGHAPRP = 0.297
• RRIRARPPRLPRPRPRPLADPRP = 0.42
• RRIRFRPPRLPRPRPRPRLWPRP = 0.497
• RRIRMRPPRLPRPRPRPYIIPRP = -0.151
• RRIRSRPPRLPRPRPRPGRWPRP = 0.657
• RRIRWRPPRLPRPRPRPVPYPRP = -0.638
• RRIRMRPPRLPRPRPRPGLVPRP = 0.294
• RRIRIRPPRLPRPRPRPRHYPRP = -0.177
• RRIRWRPPRLPRPRPRPFCWPRP = 0.403
